experiment-description: Metabolic stability in human liver microsomes
Assay type: in vitro ADME
experimental-parameters: [(deuterated species) − (nondeuterated species)](100)/(nondeuterated species), t1/2 in HLM vs boceprevir
measurement-kind: % Difference (%)
Please respond with the number in % and leave the unit unwritten.

Data request: Look at this molecule and give its reported % Difference. [2H]C([2H])([2H])C(NC(=O)N[C@H](C(=O)N1C[C@H]2[C@@H]([C@H]1C(=O)NC(CC1CCC1)C(=O)C(N)=O)C2(C)C)C(C([2H])([2H])[2H])(C([2H])([2H])[2H])C([2H])([2H])[2H])(C([2H])([2H])[2H])C([2H])([2H])[2H] (stereo partly shown) [Compound 109]
Data returned: 21.8

Data request: Look at this molecule and give its reported % Difference. [2H]C([2H])([2H])C1(C([2H])([2H])[2H])[C@@H]2[C@@H](C(=O)NC(CC3CCC3)C(=O)C(N)=O)N(C(=O)[C@@H](NC(=O)NC(C([2H])([2H])[2H])(C([2H])([2H])[2H])C([2H])([2H])[2H])C(C([2H])([2H])[2H])(C([2H])([2H])[2H])C([2H])([2H])[2H])C[C@@H]21 (stereo partly shown) [Compound 103]
Data returned: 32.0

Data request: Look at this molecule and give its reported % Difference. [2H]C([2H])([2H])C1(C([2H])([2H])[2H])[C@@H]2[C@@H](C(=O)NC(C(=O)C(N)=O)C([2H])([2H])C3([2H])C([2H])([2H])C([2H])([2H])C3([2H])[2H])N(C(=O)[C@@H](NC(=O)NC(C([2H])([2H])[2H])(C([2H])([2H])[2H])C([2H])([2H])[2H])C(C([2H])([2H])[2H])(C([2H])([2H])[2H])C([2H])([2H])[2H])C[C@@H]21 (stereo partly shown) [Compound 158]
Data returned: 96.3

Data request: Look at this molecule and give its reported % Difference. [2H]C([2H])([2H])C1(C([2H])([2H])[2H])[C@@H]2[C@@H](C(=O)NC(C(=O)C(N)=O)C([2H])([2H])C3([2H])C([2H])([2H])C([2H])([2H])C3([2H])[2H])N(C(=O)[C@@H](NC(=O)NC(C)(C)C)C(C)(C)C)C[C@@H]21 (stereo partly shown) [Compound 130]
Data returned: 65.3

Data request: Look at this molecule and give its reported % Difference. [2H]C1([2H])C([2H])([2H])C([2H])(CC(NC(=O)[C@@H]2[C@@H]3[C@H](CN2C(=O)[C@@H](NC(=O)NC(C)(C)C)C(C)(C)C)C3(C)C)C(=O)C(N)=O)C1([2H])[2H] (stereo partly shown) [Compound 157]
Data returned: 39.9

Data request: Look at this molecule and give its reported % Difference. [2H]C([2H])([2H])C1(C([2H])([2H])[2H])[C@@H]2[C@@H](C(=O)NC(CC3CCC3)C(=O)C(N)=O)N(C(=O)[C@@H](NC(=O)NC(C)(C)C)C(C)(C)C)C[C@@H]21 (stereo partly shown) [Compound 134]
Data returned: 7.9

Data request: Look at this molecule and give its reported % Difference. [2H]C([2H])(C(NC(=O)[C@@H]1[C@@H]2[C@H](CN1C(=O)[C@@H](NC(=O)NC(C)(C)C)C(C)(C)C)C2(C)C)C(=O)C(N)=O)C1([2H])C([2H])([2H])C([2H])([2H])C1([2H])[2H] (stereo partly shown) [Compound 154]
Data returned: 51.4
